tested on: Fibrinogen (Alexa647-labelled); experiment: fibrinogen binders on compound microarrays, profiling panel, artefact control for SMM control-protein annotation, biochemical, small-molecule microarray, 635/667 nm fluorescence (AID 1131); settings: fibrinogen-A647 binding fluorescence, higher = more signal;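 also: z-score merges 667 nm fluorescence with per-spot signal-to-noise over triplicate slides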
Examples of compounds with documented composite z-score follow.
METRIC: composite z-score

COMPOUND_SMILES: Cc1ccc(N2C(=O)c3ccccc3[C@](C)(C(=O)NC3CC3)[C@@H]2c2ccc(CO)cc2)nc1
METRIC: composite z-score
RECORDED_VALUE: -0.777
--
COMPOUND_SMILES: CCCC[C@@H](O)C1=C(C)C[C@H]2C(=O)N(C)C(=O)[C@H]2[C@H]1CO
METRIC: composite z-score
RECORDED_VALUE: 0.173
--
COMPOUND_SMILES: NC(=O)NCC#Cc1ccc2c(c1)[C@]1(C(=O)N2)[C@H](c2ccc(OCCO)cc2)N2[C@H](c3ccccc3)[C@H](c3ccccc3)OC(=O)[C@H]2[C@@H]1C(=O)Nc1nc2ccccc2s1
METRIC: composite z-score
RECORDED_VALUE: 0.0886
--
COMPOUND_SMILES: C=CCC1(CC=C)C[C@H]2CO[C@H](c3ccc(OC)cc3)N2C1=O
METRIC: composite z-score
RECORDED_VALUE: -0.78
